Origin of values: patent US20100305093A1

# pIC50 annotations
Target: mTOR/GbL/Raptor (mTORC1) (Homo sapiens, UniProt P42345)
Experiment: mTOR/GbL/Raptor (mTORC1) ELISA assay, phosphorylation of 4E-BP1
Type: biochemical
Conditions: 0.2 nM mTORC1, 10 μM ATP, 50 nM NHis-tagged 4E-BP1; read-out: Activity in mTOR/GbL/Raptor ELISA Assay
Method: mTOR/GbL/Raptor (mTORC1) ELISA Assay The measurement of mTORC1 enzyme activity was performed in an ELISA assay format following the phosphorylation of 4E-BP1 protein. All experiments were performed in the 384-well format. […] Following the final wash step with TBST, 20 μL of SuperSignal ELISA Femto (Pierce Biotechnology) was added and the luminescence measured using an EnVision plate reader.
pIC50: −log10 of the molar value.

| compound-smiles | measured-target | pIC50 |
| --- | --- | --- |
| O=C(c1ccc(-c2csnn2)cc1)N1CCOc2ccc(-c3ccc4cn[nH]c4c3)cc2C1 | mTOR/GbL/Raptor (mTORC1) (Homo sapiens, UniProt P42345) | 8.20 |
| Cc1ccc(C(=O)N2CCOc3ccc(-c4ccc5nc[nH]c5c4)cc3C2)c(C)c1 | mTOR/GbL/Raptor (mTORC1) (Homo sapiens, UniProt P42345) | 8.19 |
| CCc1c(C(=O)N2CCOc3ccc(-c4ccc(C(=O)NC)c(F)c4)cc3C2)ccc(S(C)(=O)=O)c1F | mTOR/GbL/Raptor (mTORC1) (Homo sapiens, UniProt P42345) | 7.92 |
